- methodNotes: Volume of distribution at steady state in Sprague-Dawley rat at 1 mg/kg, iv
- Format: ADME, organism-based
- Set-up: dose 1 mg/kg, route intravenous
- conditions: in vivo, read-out: Vdss
reportedProperty: Vd

Which Vd value is on record for "Cn1ccc(Nc2ncnc3ccc(Oc4c(F)cccc4S(C)(=O)=O)cc23)n1" ?
0.5 L/kg

* * *

- methodNotes: Half life in Sprague-Dawley rat at 1 mg/kg, iv
- Type: ADME, organism-based
- Design: dose 1 mg/kg, route intravenous
- conditions: in vivo
reportedProperty: half-life (min)
Write the answer as a number in min, unit excluded.

Which half-life value is on record for "Cn1ccc(Nc2ncnc3ccc(Oc4c(F)cccc4S(C)(=O)=O)cc23)n1" ?
78
